# Test system: L5178Y
# Test Protocol: Cytotoxicity against mouse L5178Y cells at 10 ug/mL by MTT assay
# Format: functional
Parameter: Activity (%)
Numbers only, in %.

COc1cc(O)c2c(c1-c1c(OC)cc(O)c3c1C(=O)c1cc(C)c(O)cc1C3=O)C(=O)C1=C(C2=O)[C@H](O)[C@@H](O)[C@@](C)(O)[C@@H]1O (single isomer, unassigned; atropisomer) :: 31.1

For every item in the list below, what is its measured Activity?
1. COc1cc(O)c2c(c1)C(=O)c1cc(C)c(O)c(O)c1C2=O
2. COc1cc(O)c2c(c1)C(=O)c1cc(C)c(O)cc1C2=O
3. COc1cc2c(c(O)c1-c1c(OC)cc(O)c3c1C(=O)C1=C(C3=O)[C@H](O)[C@@H](O)[C@@](C)(O)[C@@H]1O)C(=O)c1cc(O)c(C)cc1C2=O (single isomer, unassigned; atropisomer)
4. Cc1cc(O)c2c(c1)C(=O)c1cc(O)cc(O)c1C2=O
5. COc1cc(O)c2c(c1)C(=O)[C@@H]1[C@H](C[C@@H](O)[C@@](C)(O)[C@@H]1O)[C@H]2O

Result:
1. 4.9
2. 54.5
3. 0.1
4. 77
5. 41.4

Value source: ChEMBL document CHEMBL1151842
